Tested on: Staphylococcus aureus
Test: Antibacterial activity against Staphylococcus aureus SA-1199B norA++ and A116E GrlA mutation by microdilution technique
Format: functional
Criterion: MIC strictly under 2 µg/mL. Met: Met. Not met: Not met.

[Q] is_below(MIC, 2 µg/mL) for O=C(O)c1cn(C2CC2)c2cc(N3CCNCC3)c(F)cc2c1=O [CIPROFLOXACIN] ?
[A] Not met

[Q] is_below(MIC, 2 µg/mL) for CO/N=C1/C2=C(CCN(c3c(N)cc4c(=O)c(C(=O)O)cn(C5CC5)c4c3C)C2)SCC1C (centres undefined) ?
[A] Not met

[Q] is_below(MIC, 2 µg/mL) for Cc1c(N2CCC3=C(C2)C(=O)C(C)CS3)c(N)cc2c(=O)c(C(=O)O)cn(C3CC3)c12 (centres undefined) ?
[A] Met

[Q] is_below(MIC, 2 µg/mL) for Cc1c(N2CCc3ccccc3C2)c(N)cc2c(=O)c(C(=O)O)cn(C3CC3)c12 ?
[A] Met

[Q] is_below(MIC, 2 µg/mL) for CC1CSC2=C(CN(c3cc4c(cc3N)c(=O)c(C(=O)O)cn4C3CC3)CC2)C1=O (centres undefined) ?
[A] Not met

[Q] is_below(MIC, 2 µg/mL) for O=C(O)c1cn(C2CC2)c2cc(N3CCC4=C(C3)/C(=N/O)CCS4)c(F)cc2c1=O ?
[A] Not met

[Q] is_below(MIC, 2 µg/mL) for CO/N=C1/C2=C(CCN(c3cc4c(cc3F)c(=O)c(C(=O)O)cn4C3CC3)C2)SCC1C (centres undefined) ?
[A] Not met

[Q] is_below(MIC, 2 µg/mL) for CO/N=C1\CCSC2=C1CN(c1cc3c(cc1F)c(=O)c(C(=O)O)cn3C1CC1)CC2 ?
[A] Not met

[Q] is_below(MIC, 2 µg/mL) for COc1c(N2C[C@@H]3CCCN[C@@H]3C2)c(F)cc2c(=O)c(C(=O)O)cn(C3CC3)c12 [MOXIFLOXACIN] ?
[A] Met
